test: Efflux ratio of apparent permeability across basolateral to apical over apical to basolateral side in human Caco-2 cells; format: ADME, cell-based
Parameter: efflux ratio
Answer with the value's number alone.

QUERY: Requested read-out: efflux ratio. Entry: CC[C@@]1(O)C(=O)OCc2c1cc1n(c2=O)Cc2cc3cc4c(cc3nc2-1)OCO4
RESULT: 1.2
